Molecular target: human recombinant kinase full-length AKT1 E17K (Homo sapiens, UniProt P31749, E17K)
Construct: Purified human recombinant kinase full-length AKT1 E17K was expressed in insect cells
Sequence (P31749 whole entry E17K): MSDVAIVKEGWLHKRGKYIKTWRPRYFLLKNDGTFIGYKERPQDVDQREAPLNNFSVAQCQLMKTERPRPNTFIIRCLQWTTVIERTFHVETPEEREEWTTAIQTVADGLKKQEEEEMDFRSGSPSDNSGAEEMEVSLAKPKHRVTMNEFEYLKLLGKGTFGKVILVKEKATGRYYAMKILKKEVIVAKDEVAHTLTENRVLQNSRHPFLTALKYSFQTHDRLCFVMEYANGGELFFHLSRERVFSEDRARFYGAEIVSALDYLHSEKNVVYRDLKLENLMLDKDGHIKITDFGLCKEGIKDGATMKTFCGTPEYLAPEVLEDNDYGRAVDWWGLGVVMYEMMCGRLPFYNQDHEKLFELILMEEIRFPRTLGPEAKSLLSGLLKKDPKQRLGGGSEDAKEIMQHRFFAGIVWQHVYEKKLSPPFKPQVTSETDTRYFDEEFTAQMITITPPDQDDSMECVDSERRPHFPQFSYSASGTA
Assay: AKT1 E17K kinase assay (TR-FRET, Lance)
Conditions: 0.6 nM AKT1 E17K, 50 nM Ulight-CREBtide, either 50 μM ATP or 2 mM ATP (not specified which), 60 min at RT
reported_endpoint: IC50

| compound | result |
| --- | --- |
| CCNC(=O)Cc1cccc(C(=O)NCc2ccc(-n3c(-c4cccnc4N)nc4ccc(-c5ccccc5)nc43)cc2)c1 [Compound 44] | > 500 nM |
| COc1ccc2nc(-c3cccnc3N)n(-c3ccc(CNC(=O)c4cccc(CC(=O)O)c4)cc3)c2c1 [Compound 104] | > 500 nM |
| Nc1ncccc1-c1nc2ccc(C(F)(F)F)cc2n1-c1ccc(CNC(=O)c2cccc(CC(=O)O)c2)cc1 [Compound 107] | > 500 nM |
| COc1cc(CN2CC(c3ccc(-n4c(-c5cccnc5N)nc5ccc(-c6ccccc6)nc54)cc3)C2)ccc1C(=O)O [Compound 184] | < 50 nM |
| Cc1cc(C(=O)O)ccc1C(=O)Nc1ccc(-n2c(-c3cccnc3N)nc3ccc(-c4ccccc4)nc32)cc1F [Compound 66] | 200 to 500 nM |
| Nc1ncccc1-c1nc2ccc(-c3ccccc3)nc2n1-c1ccc(CNC(=O)c2cccc(S(=O)(=O)O)c2F)cc1 [Compound 9] | 200 to 500 nM |
| COC(=O)Cc1cccc(C(=O)NCc2ccc(-n3c(-c4cccnc4N)nc4cc(-c5cccnc5)cnc43)cc2)c1 [Compound 89] | > 500 nM |
| COC(=O)c1ccc([C@H](C)N2CC(c3ccc(-n4c(-c5cccnc5N)nc5ccc(-c6ccccc6)nc54)cc3)C2)cc1 (single isomer, unassigned) [Compound 158] | > 500 nM |
| Cc1cc(C(=O)O)ccc1NC(=O)c1ccc(-n2c(-c3cccnc3N)nc3ccc(-c4ccccc4)nc32)cn1 [Compound 178] | > 500 nM |
| Cc1cc(C(=O)O)ccc1C(=O)Nc1ccc(-n2c(-c3cccnc3N)nc3ccc(-c4ccccc4)nc32)cn1 [Compound 63] | 200 to 500 nM |

====

Biological target: human recombinant kinase full-length AKT1 E17K (Homo sapiens, UniProt P31749, E17K)
Construct: Purified human recombinant kinase full-length AKT1 E17K was expressed in insect cells
Experiment: AKT1 E17K kinase assay (TR-FRET, Lance)
Conditions: 0.6 nM AKT1 E17K, 50 nM Ulight-CREBtide, either 50 μM ATP or 2 mM ATP (not specified which), 60 min at RT
pIC50: −log10 of the molar value.
reported_endpoint: pIC50

| compound | reported_endpoint | result |
| --- | --- | --- |
| Nc1ncccc1-c1nc2ccc(-c3ccccc3)nc2n1-c1ccc(C2CN(C(=O)c3ccc(C(=O)O)cc3F)C2)cc1 | pIC50 | > 7.30 |
| CC(c1ccc(C(=O)O)cc1)N1CC(c2ccc(-n3c(-c4cccnc4N)nc4ccc(-c5ccccc5)nc43)cn2)C1 (stereo not shown) | pIC50 | < 6.30 |
| CC(C(=O)O)c1cccc(C(=O)NCc2ccc(-n3c(-c4cccnc4N)nc4ccc(-c5ccccc5)nc43)cc2)n1 (stereo not shown) | pIC50 | < 6.30 |
| Nc1ncccc1-c1nc2cc(-c3cccnc3)cnc2n1-c1ccc(CNC(=O)c2ccc(CC(=O)O)cc2)cc1 | pIC50 | < 6.30 |
| Cc1cc(C(=O)Nc2ccc(-n3c(-c4cccnc4N)nc4ccc(-c5ccccc5)nc43)cn2)c(F)cc1C(=O)O | pIC50 | 6.70 to 7.30 |
| CC(c1ccc(C(=O)O)cc1)N1CCC(c2ccc(-n3c(-c4cccnc4N)nc4ccc(-c5ccccc5)nc43)cc2)CC1 (stereo not shown) | pIC50 | 6.30 to 6.70 |
| Nc1ncccc1-c1nc2ccc(-c3ccccc3)nc2n1-c1ccc(NC(=O)c2ccc(C(=O)O)cc2F)nc1 | pIC50 | 6.70 to 7.30 |

====

Molecular target: human recombinant kinase full-length wildtype AKT1 (Homo sapiens, UniProt P31749)
Construct: Purified human recombinant kinase full-length wildtype AKT1 was expressed in insect cells
Experiment: AKT1 kinase assay (wildtype, TR-FRET, Lance)
Conditions: 0.6 nM wildtype AKT1, 50 nM Ulight-CREBtide, either 50 μM ATP or 2 mM ATP (not specified which), 60 min at RT
pIC50: −log10 of the molar value.
Each item that follows carries a reported pIC50.

| compound | pIC50 |
| --- | --- |
| Cc1cc(C(=O)O)ccc1C(=O)NCc1ccc(-n2c(-c3cccnc3N)nc3ccc(C(F)(F)F)cc32)cc1 | > 6.30 |
| CC(=O)Nc1cccc(-c2cnc3c(c2)nc(-c2cccnc2N)n3-c2ccc(CNC(=O)c3cccc(CC(=O)O)c3)cc2)c1 | > 6.30 |
| Nc1ncccc1-c1nc2ccc(-c3ccccc3)nc2n1-c1ccc(NCc2ccc(C(=O)O)cc2F)nc1 | > 6.30 |
| Nc1ncccc1-c1nc2ccc(-c3ccccc3)nc2n1-c1ccc(NCc2ccc(C(=O)O)cc2)cc1 | > 6.30 |
| COc1ccc2nc(-c3cccnc3N)n(-c3ccc(CNC(=O)c4cccc(CC(=O)O)c4)cc3)c2c1 | < 6.30 |
| Nc1ncccc1-c1nc2ccc(OC(F)(F)F)cc2n1-c1ccc(NC(=O)c2ccc(C(=O)O)cc2)nc1 | < 6.30 |
| C[C@H](c1ccc(C(=O)O)cc1)N1CC(c2ccc(-n3c(-c4cccnc4N)nc4ccc(-c5ccccc5)nc43)cc2)C1 (single isomer, unassigned) | > 6.30 |

====

Target: human recombinant kinase full-length AKT1 E17K (Homo sapiens, UniProt P31749, E17K)
Construct: Purified human recombinant kinase full-length AKT1 E17K was expressed in insect cells
Experiment: AKT1 E17K kinase assay (TR-FRET, Lance)
Settings: 0.6 nM AKT1 E17K, 50 nM Ulight-CREBtide, either 50 μM ATP or 2 mM ATP (not specified which), 60 min at RT
reported_endpoint: IC50

| compound | result |
| --- | --- |
| Nc1ncccc1-c1nc2ccc(-c3ccccc3)nc2n1-c1ccc(CNC(=O)c2cccc(CC(=O)O)c2)c(F)c1 [Compound 50] | > 500 nM |
| COC(=O)Cc1cccc(C(=O)NCc2ccc(-n3c(-c4cccnc4N)nc4ccc(-c5ccccc5)nc43)cc2)c1F [Compound 33] | > 500 nM |
| Nc1ncccc1-c1nc2ccc(-c3ccccc3)nc2n1-c1ccc(NC(=O)c2cccc(CC(=O)O)c2)nc1 [Compound 64] | < 50 nM |
| Nc1ncccc1-c1nc2ccc(-c3ccccc3)nc2n1-c1ccc(NC(=O)c2ccc(C(=O)O)cc2)cc1 [Compound 53] | < 50 nM |
| Nc1ncccc1-c1nc2ccc(C(F)(F)F)nc2n1-c1ccc(CNC(=O)c2ccc(C(=O)O)cc2)cc1 [Compound 99] | > 500 nM |
| Cc1cc(NC(=O)c2ccc(-n3c(-c4cccnc4N)nc4ccc(-c5ccccc5)nc43)cn2)ccc1C(=O)O [Compound 177] | 200 to 500 nM |
| Nc1ncccc1-c1nc2ccc(-c3ccccc3)nc2n1-c1ccc(NC(=O)c2cc(F)c(C(=O)O)c(F)c2)nc1 [Compound 150] | < 50 nM |
| Nc1ncccc1-c1nc2ccc(-c3ccccc3)nc2n1-c1ccc(NC(=O)c2ccc(C(=O)O)c(F)c2)nc1 [Compound 117] | < 50 nM |
| CC(c1ccc(C(=O)O)c(F)c1)N1CC(c2ccc(-n3c(-c4cccnc4N)nc4ccc(-c5ccccc5)nc43)cc2)C1 (centres unmarked) [Compound 163] | 50 to 200 nM |
| Nc1ncccc1-c1nc2ccc(-c3ccccc3)nc2n1-c1ccc(NCc2ccc(C(=O)O)cc2F)nc1 [Compound 68] | 50 to 200 nM |
| Nc1ncccc1-c1nc2ccc(-c3ccccc3)nc2n1-c1ccc(NCc2ccc(C(=O)O)cc2)cc1 [Compound 58] | 50 to 200 nM |
| CC(=O)Nc1cccc(-c2cnc3c(c2)nc(-c2cccnc2N)n3-c2ccc(CNC(=O)c3cccc(CC(=O)O)c3)cc2)c1 [Compound 83] | 200 to 500 nM |
| Nc1ncccc1-c1nc2ccc(-c3ccccc3)nc2n1-c1ccc(C(=O)NCc2cccc(CC(=O)O)c2)cc1 [Compound 52] | > 500 nM |
| Nc1ncccc1-c1nc2ccc(-c3cccnc3)nc2n1-c1ccc(CNC(=O)c2ccc(CC(=O)O)cc2)cc1 [Compound 95] | 200 to 500 nM |

====

Biological target: human recombinant kinase full-length AKT1 E17K (Homo sapiens, UniProt P31749, E17K)
Construct: Purified human recombinant kinase full-length AKT1 E17K was expressed in insect cells
Test: AKT1 E17K kinase assay (TR-FRET, Lance)
Conditions: 0.6 nM AKT1 E17K, 50 nM Ulight-CREBtide, either 50 μM ATP or 2 mM ATP (not specified which), 60 min at RT
pIC50: −log10 of the molar value.
Each item that follows carries a reported pIC50.
reported_endpoint: pIC50

| compound_structure_string | result |
| --- | --- |
| Nc1ncccc1-c1nc2ccc(-c3ccccc3)nc2n1-c1ccc(C2CN(C(=O)c3cccc(C(=O)O)c3F)C2)cc1 | 6.70 to 7.30 |
| NC(=O)c1cnc2c(c1)nc(-c1cccnc1N)n2-c1ccc(CNC(=O)c2cccc(CC(=O)O)c2)cc1 | < 6.30 |
| Cc1nc(NC(=O)c2ccc(C(=O)O)c(F)c2)ccc1-n1c(-c2cccnc2N)nc2ccc(-c3ccccc3)nc21 | > 7.30 |
| Nc1ncccc1-c1nc2ccc(-c3ccccc3)nc2n1-c1ccc(NC(=O)c2cccc(C(=O)O)c2F)cc1 | > 7.30 |

// data source = patent US20260200919A1
